Exercise: for every item that follows, state its recorded switch fluorescence ratio.
- Test system: ATP;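 further: ATP exposure 15 min at 22 °C before imaging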
- ASSAY_DETAILS: switch fluorescence ratio, 500 uM ATP over buffer (Cy3 cluster intensity, sum of 5 cycles each) (fold (ratio)); higher = stronger signal-on switching upon ATP binding; sequences stand for … in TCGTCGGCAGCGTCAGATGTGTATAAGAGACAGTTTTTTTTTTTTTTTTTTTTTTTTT…TC
- APPLIED_CONDITIONS: aptamer strand: ATP DNA aptamer (quencher-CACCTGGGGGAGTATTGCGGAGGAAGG + anchor), 100 nM annealed; ATP concentration: 500 uM
Numbers only.

Use the examples below as a reference point.
POLYMER_SEQUENCE	ASSAYED_TARGET	QUANTITATIVE_READOUT
AATTAATTAA	ATP	1
GTTATTTTAA	ATP	0.985

Consider the following items and state reported switch fluorescence ratio for each.
1. TATGAGATTA
2. CGCATCGGTC
3. ATGTTTATGA
4. TAGAAACCCG
5. TTCGGGATAG
6. ATAGTCCATA
7. TTGAAATTAA

Response line:
[0.993, 1.16, 0.981, 1.04, 1.07, 0.991, 1.01]

Consider the following items and state reported switch fluorescence ratio for each.
1. CATGGTTGG
2. TTACGTGTCG
3. GGATTCCGGG
4. ATTGAGTGTG
5. CGCAAGTATG
6. CGGTCATACT

Response line:
1: 1.01; 2: 1.01; 3: 0.988; 4: 0.979; 5: 1.26; 6: 1.21

Consider the following items and state reported switch fluorescence ratio for each.
1. TCGGATTATG
2. TTTAGGATCT
3. GTGGCAGACC
4. TTGGGTAATA
5. TAAAGAAACT
6. GTTGAAACTT

Response line:
0.967
0.954
1.01
1.05
1.28
0.998

====

Exercise: for every item that follows, state its recorded switch fluorescence ratio.
- Test system: ATP;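 further: ATP exposure 15 min at 22 °C before imaging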
- ASSAY_DETAILS: switch fluorescence ratio, 500 uM ATP over buffer (Cy3 cluster intensity, sum of 5 cycles each) (fold (ratio)); higher = stronger signal-on switching upon ATP binding; sequences stand for … in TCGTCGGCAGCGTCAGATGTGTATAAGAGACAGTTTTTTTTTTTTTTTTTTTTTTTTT…TC
- APPLIED_CONDITIONS: aptamer strand: ATP DNA aptamer (quencher-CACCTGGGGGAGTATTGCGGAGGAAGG + anchor), 100 nM annealed; ATP concentration: 500 uM
Answers are plain numbers.

POLYMER_SEQUENCE	ASSAYED_TARGET	ENDPOINT_NAME	QUANTITATIVE_READOUT
TATACAGGGG	ATP	switch fluorescence ratio	1.2
TACTGAGTTA	ATP	switch fluorescence ratio	1
GGAGGGCAGG	ATP	switch fluorescence ratio	0.988
GGATAAATGC	ATP	switch fluorescence ratio	1.02
GGGGAAGCCA	ATP	switch fluorescence ratio	0.979
CCAGGTTTGG	ATP	switch fluorescence ratio	1.03
GACGAAAGGC	ATP	switch fluorescence ratio	1.05
GGGGGGAGCC	ATP	switch fluorescence ratio	0.996
GAATATCAAG	ATP	switch fluorescence ratio	0.987
CGTTTACCGA	ATP	switch fluorescence ratio	0.942

Consider the following items and state reported switch fluorescence ratio for each.
1. AATATGATTG
2. TTTGGGGGGT

Response line:
1.02
0.985
